Source listed as patent US6992193B2.

Target: CYP2C9 (Homo sapiens, UniProt P11712)
Sequence (P11712 whole entry): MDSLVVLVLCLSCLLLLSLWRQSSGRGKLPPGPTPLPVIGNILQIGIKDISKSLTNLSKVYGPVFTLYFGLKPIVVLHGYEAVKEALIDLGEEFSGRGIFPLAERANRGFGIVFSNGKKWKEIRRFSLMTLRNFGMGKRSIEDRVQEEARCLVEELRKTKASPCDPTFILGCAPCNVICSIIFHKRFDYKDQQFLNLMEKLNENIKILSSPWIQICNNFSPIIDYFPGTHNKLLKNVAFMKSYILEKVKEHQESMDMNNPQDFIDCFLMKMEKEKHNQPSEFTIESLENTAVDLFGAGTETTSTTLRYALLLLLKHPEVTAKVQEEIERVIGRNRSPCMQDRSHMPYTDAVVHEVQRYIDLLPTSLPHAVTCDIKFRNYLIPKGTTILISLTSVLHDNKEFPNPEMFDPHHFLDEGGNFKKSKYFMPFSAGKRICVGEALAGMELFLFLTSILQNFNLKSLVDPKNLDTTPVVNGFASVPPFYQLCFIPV
Experiment: Inhibition of CYP2C9 conversion of dibenzylfluorescein to fluorescein
Type: in vitro ADME
Settings: DBF to fluorescein conversion; read-out: IC50(CYP2C9)
pIC50: −log10 of the molar value. Structures can show the parent of a compound that is named as a salt.

Molecule: CN(C(=O)Cc1ccc(CCCNS(C)(=O)=O)cc1)[C@H](CN1CC[C@H](O)C1)c1ccccc1.Cl [Example 27, hydrochloride]
pIC50: < 5.00
--
Molecule: CCCS(=O)(=O)NCc1ccc(CC(=O)N(C)[C@H](CN2CC[C@H](O)C2)c2ccccc2)cc1.Cl [Example 16, hydrochloride]
pIC50: < 5.00
--
Molecule: CN(C(=O)Cc1ccc(CNS(=O)(=O)Cc2ccccc2)cc1)[C@H](CN1CC[C@H](O)C1)c1ccccc1 [Example 21, hydrochloride]
pIC50: < 5.00
--
Molecule: Cc1noc(C)c1S(=O)(=O)NCc1ccc(CC(=O)N(C)[C@H](CN2CC[C@H](O)C2)c2ccccc2)cc1 [Example 23, hydrochloride]
pIC50: < 5.00
--
Molecule: CC(C)[C@@H](CN1CC[C@H](O)C1)N(C)C(=O)Cc1ccc(CNS(C)(=O)=O)cc1.O=C(O)C(F)(F)F [Example 28, trifluoroacetate]
pIC50: < 5.00
--
Molecule: CCS(=O)(=O)NCc1ccc(CC(=O)N(C)[C@H](CN2CC[C@H](O)C2)c2ccccc2)cc1.Cl [Example 14, hydrochloride]
pIC50: < 5.00
--
Molecule: CN(C(=O)Cc1ccc(CNS(=O)(=O)c2ccc(F)cc2)cc1)[C@H](CN1CC[C@H](O)C1)c1ccccc1 [Example 19, hydrochloride]
pIC50: < 5.00

---

Target: cloned human κ receptors (Homo sapiens, UniProt P41145)
Sequence (P41145 whole entry): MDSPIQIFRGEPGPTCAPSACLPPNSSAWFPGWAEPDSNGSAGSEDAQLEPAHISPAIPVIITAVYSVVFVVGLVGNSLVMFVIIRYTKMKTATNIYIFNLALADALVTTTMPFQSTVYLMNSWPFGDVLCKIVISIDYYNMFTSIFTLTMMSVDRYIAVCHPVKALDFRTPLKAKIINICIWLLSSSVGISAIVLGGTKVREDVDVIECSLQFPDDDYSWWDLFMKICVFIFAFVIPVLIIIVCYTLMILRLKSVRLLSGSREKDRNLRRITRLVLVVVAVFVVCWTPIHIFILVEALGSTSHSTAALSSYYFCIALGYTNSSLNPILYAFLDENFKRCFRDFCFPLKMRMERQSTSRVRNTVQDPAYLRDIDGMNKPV
Assay: [35S]GTPγS binding stimulation, membranes containing cloned human κ receptors
Settings: half-maximal stimulation of [35S]GTPγS binding, cloned human κ receptor
pEC50: −log10 of the molar value. Where a name gives a salt, the structure may show the parent alone.

Compound: CS(=O)(=O)NCc1ccc(CC(=O)N2CCCC[C@H]2CN2CC[C@H](O)C2)cc1.O=C(O)C(F)(F)F [Example 29, trifluoroacetate]
Tested system: cloned human κ receptors (Homo sapiens, UniProt P41145)
pEC50: 7.57
//
Compound: CC(C)[C@@H](CN1CC[C@H](O)C1)N(C)C(=O)Cc1ccc(CNS(C)(=O)=O)cc1.O=C(O)C(F)(F)F [Example 28, trifluoroacetate]
Tested system: cloned human κ receptors (Homo sapiens, UniProt P41145)
pEC50: 7.10
//
Compound: CN(C(=O)Cc1ccc(CN(C)S(C)(=O)=O)cc1)[C@H](CN1CC[C@H](O)C1)c1ccccc1.Cl [Example 24, hydrochloride]
Tested system: cloned human κ receptors (Homo sapiens, UniProt P41145)
pEC50: 7.26
//
Compound: Cc1noc(C)c1S(=O)(=O)NCc1ccc(CC(=O)N(C)[C@H](CN2CC[C@H](O)C2)c2ccccc2)cc1 [Example 23, hydrochloride]
Tested system: cloned human κ receptors (Homo sapiens, UniProt P41145)
pEC50: 7.28
//
Compound: CN(C(=O)Cc1ccc(CNS(=O)(=O)c2cccs2)cc1)[C@H](CN1CC[C@H](O)C1)c1ccccc1 [Example 22, hydrochloride]
Tested system: cloned human κ receptors (Homo sapiens, UniProt P41145)
pEC50: 8.31

---

Molecular target: cloned human μ opioid receptor (Homo sapiens, UniProt P35372)
Construct: expressed in transfected cells
Sequence (P35372 whole entry): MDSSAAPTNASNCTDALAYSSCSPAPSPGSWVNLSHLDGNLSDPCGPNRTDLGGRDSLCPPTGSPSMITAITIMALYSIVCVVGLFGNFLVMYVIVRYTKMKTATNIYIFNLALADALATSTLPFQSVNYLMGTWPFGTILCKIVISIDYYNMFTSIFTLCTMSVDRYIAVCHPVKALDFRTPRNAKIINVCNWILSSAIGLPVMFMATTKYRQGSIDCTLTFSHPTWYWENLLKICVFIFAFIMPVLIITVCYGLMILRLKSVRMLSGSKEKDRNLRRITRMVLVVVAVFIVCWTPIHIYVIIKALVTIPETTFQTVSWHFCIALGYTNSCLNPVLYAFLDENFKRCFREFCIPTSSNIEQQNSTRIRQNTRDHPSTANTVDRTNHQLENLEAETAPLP
Experiment: [3H]diprenorphine binding to cloned human μ opioid receptor
Structures can show the parent of a compound that is named as a salt.
Binarize Ki at 1 µM; below is true, at or above is false.

Compound: CN(C(=O)Cc1ccc(NS(C)(=O)=O)cc1)[C@H](CN1CC[C@H](O)C1)c1ccccc1 [Example 25, hydrochloride]
Label class: true

Compound: CN(C(=O)Cc1ccc(CNS(=O)(=O)c2cccs2)cc1)[C@H](CN1CC[C@H](O)C1)c1ccccc1 [Example 22, hydrochloride]
Label class: false

Compound: CC(C)[C@@H](CN1CC[C@H](O)C1)N(C)C(=O)Cc1ccc(CNS(C)(=O)=O)cc1.O=C(O)C(F)(F)F [Example 28, trifluoroacetate]
Label class: false

Compound: CN(C(=O)Cc1ccc(CNS(C)(=O)=O)cc1)[C@H](CN1CC[C@H](O)C1)c1ccccc1 [Example 13, hydrochloride]
Label class: true

Compound: CN(C(=O)Cc1ccc(CNS(C)(=O)=O)cc1)[C@H](CN1CCCC1)c1ccccc1
Label class: true

Compound: CN(C(=O)Cc1ccc(CN(C)S(C)(=O)=O)cc1)[C@H](CN1CC[C@H](O)C1)c1ccccc1.Cl [Example 24, hydrochloride]
Label class: true

Compound: CS(=O)(=O)NCc1ccc(CC(=O)N2CCCC[C@H]2CN2CC[C@H](O)C2)cc1.O=C(O)C(F)(F)F [Example 29, trifluoroacetate]
Label class: false

Compound: Cc1noc(C)c1S(=O)(=O)NCc1ccc(CC(=O)N(C)[C@H](CN2CC[C@H](O)C2)c2ccccc2)cc1 [Example 23, hydrochloride]
Label class: false

Compound: CN(C(=O)Cc1ccc(CNS(=O)(=O)c2ccc(F)cc2)cc1)[C@H](CN1CC[C@H](O)C1)c1ccccc1 [Example 19, hydrochloride]
Label class: false

Compound: CCCS(=O)(=O)NCc1ccc(CC(=O)N(C)[C@H](CN2CC[C@H](O)C2)c2ccccc2)cc1.Cl [Example 16, hydrochloride]
Label class: true

---

Molecular target: CYP3A4 (Homo sapiens, UniProt P08684)
Sequence (P08684 whole entry): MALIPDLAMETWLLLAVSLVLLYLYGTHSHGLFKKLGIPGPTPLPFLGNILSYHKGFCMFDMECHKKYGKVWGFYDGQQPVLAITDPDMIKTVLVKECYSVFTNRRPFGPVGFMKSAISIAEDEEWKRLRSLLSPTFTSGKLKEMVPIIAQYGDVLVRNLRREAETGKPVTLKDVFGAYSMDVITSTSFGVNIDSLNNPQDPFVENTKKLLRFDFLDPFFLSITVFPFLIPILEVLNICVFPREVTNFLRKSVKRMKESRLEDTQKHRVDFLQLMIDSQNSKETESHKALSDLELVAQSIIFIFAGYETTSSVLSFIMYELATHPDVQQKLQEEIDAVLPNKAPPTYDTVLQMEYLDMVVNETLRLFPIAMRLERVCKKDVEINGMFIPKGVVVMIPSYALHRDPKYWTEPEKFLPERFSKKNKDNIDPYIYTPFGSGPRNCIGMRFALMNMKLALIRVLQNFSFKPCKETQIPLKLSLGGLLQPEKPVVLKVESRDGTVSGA
Test: Inhibition of CYP3A4 conversion of dibenzylfluorescein to fluorescein
Type: in vitro ADME
pIC50: −log10 of the molar value.
Property name: pIC50

Smiles representation: CN(C(=O)Cc1ccc(CNS(C)(=O)=O)cc1)[C@H](CN1CCCC1)c1ccccc1
Tested system: CYP3A4 (Homo sapiens, UniProt P08684)
Property name: pIC50
Recorded value: < 5.00

---

Target: CYP2C9 (Homo sapiens)
Assay: Inhibition of CYP2C9 conversion of dibenzylfluorescein to fluorescein
Assay type: in vitro ADME
Conditions: DBF to fluorescein conversion; read-out: IC50(CYP2C9)
Procedure: Inhibition of CYP2C9 and CYP3A4 These assays were carried out as described using CYP2C9 and CYP3A4 conversion of dibenzylfluorescein (DBF) to fluorescein (F).
pIC50: −log10 of the molar value. Where a name gives a salt, the structure may show the parent alone.
Property name: pIC50

Compound: CC(C)S(=O)(=O)NCc1ccc(CC(=O)N(C)[C@H](CN2CC[C@H](O)C2)c2ccccc2)cc1.Cl [Example 15, hydrochloride]
Property name: pIC50
Recorded value: < 5.00
--
Compound: CN(C(=O)Cc1ccc(CNS(=O)(=O)c2ccccc2)cc1)[C@H](CN1CC[C@H](O)C1)c1ccccc1 [Example 18, hydrochloride]
Property name: pIC50
Recorded value: 5.10
--
Compound: CN(C(=O)Cc1ccc(CNS(=O)(=O)c2cccs2)cc1)[C@H](CN1CC[C@H](O)C1)c1ccccc1 [Example 22, hydrochloride]
Property name: pIC50
Recorded value: < 5.00
--
Compound: CS(=O)(=O)NCc1ccc(CC(=O)N2CCCC[C@H]2CN2CC[C@H](O)C2)cc1.O=C(O)C(F)(F)F [Example 29, trifluoroacetate]
Property name: pIC50
Recorded value: < 5.00
--
Compound: Cc1ccc(S(=O)(=O)NCc2ccc(CC(=O)N(C)[C@H](CN3CC[C@H](O)C3)c3ccccc3)cc2)cc1 [Example 20, hydrochloride]
Property name: pIC50
Recorded value: < 5.00
--
Compound: CN(C(=O)Cc1ccc(CNS(C)(=O)=O)cc1)[C@H](CN1CC[C@H](O)C1)c1ccccc1 [Example 13, hydrochloride]
Property name: pIC50
Recorded value: < 5.00

---

Molecular target: CYP2C9 (Homo sapiens, UniProt P11712)
Experiment: Inhibition of CYP2C9 conversion of dibenzylfluorescein to fluorescein
Format: in vitro ADME
Conditions: DBF to fluorescein conversion; read-out: IC50(CYP2C9)
pIC50: −log10 of the molar value. Structures can show the parent of a compound that is named as a salt.
Let's look at some molecules and their measured pIC50.
Property name: pIC50

Molecule: CN(C(=O)Cc1ccc(CN(C)S(C)(=O)=O)cc1)[C@H](CN1CC[C@H](O)C1)c1ccccc1.Cl [Example 24, hydrochloride]
Recorded value: < 5.00
--
Molecule: CCCCS(=O)(=O)NCc1ccc(CC(=O)N(C)[C@H](CN2CC[C@H](O)C2)c2ccccc2)cc1 [Example 17, hydrochloride]
Recorded value: < 5.00
--
Molecule: CN(C(=O)Cc1ccc(CCNS(C)(=O)=O)cc1)[C@H](CN1CC[C@H](O)C1)c1ccccc1.Cl [Example 26, hydrochloride]
Recorded value: < 5.00

---

Target: CYP2D6 (Homo sapiens)
Construct: purchased BD Biosciences
Sequence (P10635 whole entry): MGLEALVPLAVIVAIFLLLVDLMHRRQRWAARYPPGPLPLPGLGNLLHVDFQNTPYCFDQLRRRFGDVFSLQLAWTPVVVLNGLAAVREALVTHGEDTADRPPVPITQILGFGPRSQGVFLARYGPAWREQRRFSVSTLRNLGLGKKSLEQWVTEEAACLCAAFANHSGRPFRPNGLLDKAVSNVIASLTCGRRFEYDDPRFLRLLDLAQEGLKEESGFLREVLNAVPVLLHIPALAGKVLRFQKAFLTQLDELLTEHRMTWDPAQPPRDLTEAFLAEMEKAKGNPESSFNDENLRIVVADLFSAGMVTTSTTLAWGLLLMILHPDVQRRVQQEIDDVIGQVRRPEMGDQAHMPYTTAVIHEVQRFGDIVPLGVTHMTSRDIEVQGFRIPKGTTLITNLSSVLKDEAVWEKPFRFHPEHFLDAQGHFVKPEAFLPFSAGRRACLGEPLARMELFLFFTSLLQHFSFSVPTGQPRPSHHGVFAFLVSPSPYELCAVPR
Experiment: Inhibition of CYP2D6 catalyzed conversion of MAMC to HAMC
Format: in vitro ADME
Details: human, pH 7.4, probe MAMC (1 µM); MAMC to HAMC conversion
Property name: IC50 at 15 min (µM)

Molecule: CN(C(=O)Cc1ccc(CCNS(C)(=O)=O)cc1)[C@H](CN1CC[C@H](O)C1)c1ccccc1.Cl [Example 26, hydrochloride]
Unit annotation: µM
Recorded value: 10
